Test: viability loss of HPDE-C7K cells – cell-based, fluorescence, HTS, primary screen (AID 431);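 further: 0% = DMSO solvent wells and 100% = doxorubicin-treated wells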
Details: HPDE-C7K KRASV12 cells, Alamar Blue viability, 48 h; at 10 µM; hits give high values
About 1,100 (1.7%) of roughly 63,000 compounds were called active. The sample as a whole holds a higher share of actives than the screen did. Results with a measured potency or affinity are listed apart.
Consider the following molecules and their measured cytotoxicity readings.

{"molecule": "COc1ccc2oc(-c3ccccc3)c(C(N)=O)c2c1", "cytotoxicity [%]": -8.2}
{"molecule": "CCn1c(SCC(=O)Nc2ccc(S(N)(=O)=O)cc2)nnc1-c1cccc(OC)c1", "cytotoxicity [%]": 6.1}
{"molecule": "CCn1c(SCC(=O)Nc2ccc3c(c2)c2ccccc2n3CC)nnc1-c1ccco1", "cytotoxicity [%]": 57.1}
{"molecule": "C=CCn1c(SCC(=O)Nc2ccc(N(C)C)cc2)nnc1-c1cccc(C)c1", "cytotoxicity [%]": 33}
{"molecule": "O=C(CN1C(=O)C2C3C=CC(C3)C2C1=O)N1CC(=O)N(CCc2ccccc2)C(=O)C1 (stereo not given)", "cytotoxicity [%]": -4.4}

###

Test: viability loss of HPDE-C7K cells – cell-based, fluorescence, HTS, primary screen (AID 431);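 further: 0% = DMSO solvent wells and 100% = doxorubicin-treated wells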
Conditions: HPDE-C7K KRASV12 cells, Alamar Blue viability, 48 h; at 10 µM
In all, about 63,000 compounds went through this assay and about 1,100 (1.7%) were called active.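 Rule for the calls: active = compounds whose percent cytotoxicity in the single-dose primary screen, scaled between solvent and toxic-drug controls, exceeds 50; inactive = the rest.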 Many of the other results were omitted from the sample, so actives are more common in it than they were. Entries with a potency or affinity are not part of this list.
Labels: true (1) (active), false (0) (inactive)

{"molecule": "COc1ccc(-c2nnc3sc(-c4c(OC)cccc4OC)nn23)cc1", "label": "false (0)"}
{"molecule": "COC(=O)c1sc(NC(=O)c2ccco2)nc1C", "label": "false (0)"}
{"molecule": "O=C(CSc1nnc(SCc2ccc(Cl)cc2)s1)N1CCN(C(=O)c2ccco2)CC1", "label": "false (0)"}
{"molecule": "Cc1ccc2nc(-c3ccc(NC(=O)c4ccco4)cc3)[nH]c2c1", "label": "false (0)"}
{"molecule": "CCn1nnnc1SCCSc1nnnn1CC", "label": "false (0)"}
{"molecule": "O=C1NC(c2ccccc2)(C(F)(F)F)SC2=NCCCN12 (stereo not given)", "label": "false (0)"}
{"molecule": "Cc1csc(NC(=O)C2CCN(C(=O)CSc3nnc(C)n3Cc3ccccc3)CC2)n1", "label": "false (0)"}
{"molecule": "C=CCNc1nnc(SC2CC(=O)N(c3ccc(OC)cc3)C2=O)s1 (stereo not given)", "label": "true (1)"}
{"molecule": "COc1cc(-c2nnc3sc(-c4cccs4)nn23)cc(OC)c1OC", "label": "true (1)"}
{"molecule": "Cc1ccc(C2(C(F)(F)F)NC(=O)N3CCN=C3S2)cc1 (stereo not given)", "label": "true (1)"}

###

Assay: viability loss of HPDE-C7K cells – cell-based, fluorescence, HTS, primary screen (AID 431);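 further: 0% = DMSO solvent wells and 100% = doxorubicin-treated wells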
Details: HPDE-C7K KRASV12 cells, Alamar Blue viability, 48 h; at 10 µM
Screen size: about 63,000 compounds; about 1,100 (1.7%) were called active.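 How the source made its calls: active means compounds whose percent cytotoxicity in the single-dose primary screen, scaled between solvent and toxic-drug controls, exceeds 50; inactive means the rest.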 This is one part of a sample in which actives are shown more often than they occur. Entries with a potency or affinity are not part of this list.
Classes used: T = active, F = inactive

{"compound": "O=C(COn1nnc2ccc(C(F)(F)F)cc21)Nc1nnc(-c2ccccc2)o1", "label": "T"}
{"compound": "FC(F)(F)c1cc(-c2ccccc2)nc(N2CCCCC2)n1", "label": "F"}
{"compound": "CNCCCC12CCC(c3ccccc31)c1ccccc12", "label": "T"}
{"compound": "CCOC(=O)CN(Cc1ccccc1)S(=O)(=O)c1ccc(NC(C)=O)cc1", "label": "F"}
{"compound": "CNCCCN1c2ccccc2CCc2ccccc21", "label": "F"}
{"compound": "O=C(Nc1ccc(S(=O)(=O)N2CCCCC2)cc1)c1ccncc1", "label": "F"}
{"compound": "Cc1ccc(-c2csc3nc(C)n(-n4c(C)ccc4C)c(=O)c23)o1", "label": "F"}
{"compound": "O=C1C(=O)N(CCOCCO)C(c2ccccn2)/C1=C(\\O)c1ccccc1 (centres undefined)", "label": "F"}
{"compound": "COc1ccc(N2CC(O)=C(c3nc4ccccc4s3)C2=N)cc1", "label": "F"}
{"compound": "O=S(=O)(Nc1ccc(-c2cn3ccsc3n2)cc1)c1ccc2c(c1)OCCO2", "label": "T"}
{"compound": "COC(=O)C(C)NS(=O)(=O)c1ccc(NC(C)=O)cc1 (centres undefined)", "label": "F"}
{"compound": "O=C(NCc1ccccc1)N1CCC(c2nc3ccccc3[nH]2)CC1", "label": "F"}
{"compound": "NS(=O)(=O)c1ccc(S(=O)(=O)N(Cc2ccccc2F)CC2CCCO2)cc1 (centres undefined)", "label": "F"}
{"compound": "CS(=O)(=O)N1CCc2cc(S(=O)(=O)Nc3ccc4oc5c(c4c3)CCCC5)ccc21", "label": "T"}
{"compound": "O=C1c2oc3ccccc3c(=O)c2C(c2cccc(Br)c2)N1Cc1ccco1 (centres undefined)", "label": "F"}
{"compound": "CC1=C(C(=O)N2CCOCC2)C(c2ccsc2)C2=C(CCCC2=O)N1 (centres undefined)", "label": "F"}
{"compound": "COC(=O)/C=C/S(=O)(=O)c1ccc(NC(C)=O)cc1", "label": "T"}
{"compound": "O=C(COc1ccccc1)Nc1nnc(-c2ccccc2)o1", "label": "F"}
{"compound": "CNCCCC1c2ccccc2C=Cc2ccccc21", "label": "F"}
